Reported apparent KD of MS2 coat protein by item:
Tested on: MS2 coat protein
procedureSummary: apparent KD of MS2 coat protein; designed switch direction (-1 OFF switch, 1 ON switch): -1; higher = weaker reporter binding
conditionsUsed: Eterna round: R95; input ligand: none
Express it in nM; write the number only.

Observe how each entry below is paired with its result.
[
  {
    "sequenceChain": "GAAAAGGUAGGAUAUACGAUAAUAAAGGGUAGAUAAUAAACACAUGAGGAUCACCCAUGUAGAAGGACCAAAAG [salish99_ex2_r3_103] (puzzle: Exclusion 2)",
    "studyTarget": "MS2 coat protein",
    "resultValue": 35.2
  },
  {
    "sequenceChain": "UUUAAUUUUUUUUUUUUACAAGCUUUUUGCUCGUCUUAUACAUGAGGAUCACCCAUGUAAAUGGGAAGUAAAUUAUC [JMF 50] (puzzle: Sensor v3, turn-off variant 2)",
    "studyTarget": "MS2 coat protein",
    "resultValue": 93.1
  },
  {
    "sequenceChain": "GCACGGUAAGUGAGGAUAUACCUCUGGAUACAGAGGUAGAAGGCACAUGAGGAUCACCCAUGUUCAAGCCGUGC [Fiskers BMX 4 - 85] (puzzle: Brourd's mod of Exclusion 4)",
    "studyTarget": "MS2 coat protein",
    "resultValue": 14.4
  },
  {
    "sequenceChain": "CUGAGCAGACGGAGAUCCCACAUGAGGAUCACCCAUGUCUCAAAAGCUUUUUGCUUGUCUUAUUCUCCUCUGUUCUC [Arorza] (puzzle: Sensor v3, turn-off variant 1)",
    "studyTarget": "MS2 coat protein",
    "resultValue": 11.4
  }
]

Let us examine a further case.
Can you look up the measured apparent KD of MS2 coat protein of AGUAGUAGUUUCCGUUCUUACAUGAGGAUCACCCAUGUUUCUUGACGUGCACGCGAUGCUCGUCAGACUACCAGAUG [salish99_TOv1_r3_056] (puzzle: Sensor v3, turn-off variant 1) for me?
56.9
